Hey, just so you know, these numbers are from ChEMBL document CHEMBL5260850.

- assayed system: Albumin (Homo sapiens, UniProt P02768)
- Sequence (P02768 whole entry): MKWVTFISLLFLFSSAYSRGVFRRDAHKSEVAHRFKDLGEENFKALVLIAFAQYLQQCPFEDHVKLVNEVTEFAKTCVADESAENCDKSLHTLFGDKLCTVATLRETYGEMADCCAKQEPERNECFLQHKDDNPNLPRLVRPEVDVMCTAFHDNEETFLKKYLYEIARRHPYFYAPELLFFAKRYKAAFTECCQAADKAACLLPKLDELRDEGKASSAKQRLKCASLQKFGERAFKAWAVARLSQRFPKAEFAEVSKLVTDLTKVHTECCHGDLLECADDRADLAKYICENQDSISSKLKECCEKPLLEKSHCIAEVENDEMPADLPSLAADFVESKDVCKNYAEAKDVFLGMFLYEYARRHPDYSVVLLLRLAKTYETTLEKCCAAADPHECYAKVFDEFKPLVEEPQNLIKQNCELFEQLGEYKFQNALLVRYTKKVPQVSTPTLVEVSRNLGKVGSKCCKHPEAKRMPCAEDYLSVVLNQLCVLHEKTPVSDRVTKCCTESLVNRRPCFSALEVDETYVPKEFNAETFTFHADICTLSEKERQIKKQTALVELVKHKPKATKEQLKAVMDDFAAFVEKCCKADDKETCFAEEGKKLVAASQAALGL
- assay: Protein binding in human serum albumin by HPLC analysis
- Format: ADME, cell-free
- condition summary: read-out: PB (converted)
value kind: fraction unbound
Keep the answer to the number alone.

Below, 3 molecules whose answers are already recorded.
{"columns": ["compound structure string", "assayed system", "fraction unbound"],
 "data": [
  ["CC(C)(O)[C@H]1CC[C@H](NC(=O)c2cnc3cc(OC(F)F)ccc3c2)CC1", "Albumin (Homo sapiens, UniProt P02768)", 0.12],
  ["CC(C)(O)[C@H]1CC[C@H](NC(=O)c2cnc3cc(C4CC4)ncc3c2)CC1", "Albumin (Homo sapiens, UniProt P02768)", 0.16],
  ["C[C@]1(O)C[C@@H](NC(=O)c2cnc3cc(N4CCC4)ncc3c2)C1", "Albumin (Homo sapiens, UniProt P02768)", 0.48]
]}

API: the following record is the query input.
Read off the recorded fraction unbound for `CC(C)(O)[C@H]1C[C@H](NC(=O)c2cnc3nc(C4CC4)c(Cl)cc3c2)C1`
0.12

###

- assay: Dose normalized AUC in mouse at 3 mg/kg, po
- Type: ADME, organism-based
- Design: unit not given here
- condition summary: in vivo
Catalogue of AUC/dose values
Keep the answer to the number alone.

Below, 5 compounds whose answers are already recorded.
{"columns": ["compound", "AUC/dose"],
 "data": [
  ["O=C(N[C@H]1CCNC1=O)c1cnc2cc(C3CC3)ncc2c1", 262],
  ["CC(C)(O)[C@H]1CC[C@H](NC(=O)c2cnc3cc(N4CCC4)ncc3c2)CC1", 41],
  ["C[C@]1(O)C[C@H](NC(=O)c2cnc3nc(C4CC4)c(Cl)cc3c2)C1", 362],
  ["O=C(N[C@H]1CCNC1=O)c1cnc2nc(C3CC3)c(Cl)cc2c1", 252],
  ["CC(C)(O)[C@]12C[C@@](NC(=O)c3cnc4nc(C5CC5)ccc4c3)(C1)C2", 285]
]}

Read off the recorded AUC/dose for `C[C@H]1CCN1c1nc2ncc(C(=O)N[C@H]3CC[C@](C)(O)CC3)cc2cc1Cl`
132

Read off the recorded AUC/dose for `C[C@]1(O)C[C@@H](NC(=O)c2cnc3cc(N4CCC4)ncc3c2)C1`
46.9

Read off the recorded AUC/dose for `COc1cc2ncc(C(=O)N[C@H]3CC[C@H](C(C)(C)O)CC3)cc2cn1`
104

Read off the recorded AUC/dose for CC(C)(O)C1CC2(CC(NC(=O)c3cnc4nc(C5CC5)ccc4c3)C2)C1 (stereo unspecified)
441

Read off the recorded AUC/dose for `O=C(N[C@H]1CCNC1=O)c1cnc2cc(N3CCC3)ncc2c1`
250

Read off the recorded AUC/dose for `C[C@H]1CCN1c1cc2ncc(C(=O)N[C@H]3CCNC3=O)cc2cn1`
715

###

- assayed system: Hematopoietic prostaglandin D synthase (Homo sapiens, UniProt O60760)
- Sequence (O60760 whole entry): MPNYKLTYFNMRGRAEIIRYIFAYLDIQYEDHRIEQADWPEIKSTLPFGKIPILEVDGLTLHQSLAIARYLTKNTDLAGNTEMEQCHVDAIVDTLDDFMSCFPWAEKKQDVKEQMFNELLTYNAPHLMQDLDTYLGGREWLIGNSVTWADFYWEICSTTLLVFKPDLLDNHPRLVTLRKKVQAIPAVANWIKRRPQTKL
- assay: Inhibition of human H-PGDS expressed in Escherichia coli BL21 DE3 cells assessed as reduction in PGD2 production using PGH2 as substrate by RapidFire High Throughput Mass spectrometry
value kind: IC50 (nM)
Give the value, in units of nM, as a plain number.

Below, 3 molecules whose answers are already recorded.
{"columns": ["compound structure string", "assayed system", "units label", "measured result"],
 "data": [
  ["O=C(N[C@H]1CCNC1=O)c1cnc2nc(C3CC3)ccc2c1", "Hematopoietic prostaglandin D synthase (Homo sapiens, UniProt O60760)", "nM", 44],
  ["C[C@]1(O)C[C@H](NC(=O)c2cnc3nc(C4CC4)c(Cl)cc3c2)C1", "Hematopoietic prostaglandin D synthase (Homo sapiens, UniProt O60760)", "nM", 6.4],
  ["CC(C)(O)[C@H]1CC[C@H](NC(=O)c2cnc3nc(OCC(F)(F)F)ccc3c2)CC1", "Hematopoietic prostaglandin D synthase (Homo sapiens, UniProt O60760)", "nM", 350]
]}

API: the following record is the query input.
Fill in IC50 for `CC(C)(O)[C@H]1CC[C@H](NC(=O)c2cnc3nc(NCC(F)F)ccc3c2)CC1` tested with Hematopoietic prostaglandin D synthase (Homo sapiens, UniProt O60760).
150

###

- assayed system: Hematopoietic prostaglandin D synthase (Rattus norvegicus)
- assay: Inhibition of H-PGDS in rat RBL cells assessed as reduction in A23187-induced PGD2 production pretreated for 30 mins followed by A23187 addition for 30 mins by RapidFire Mass spectrometry
- Assay type: cell-based
pEC50: −log10 of the molar value.
pEC50 class ranges: bottom bin (below 6), middle bin (6 to below 7), top bin (7 or more)

These solved cases illustrate the format of a correct answer.
{"columns": ["molecule", "class label"],
 "data": [
  ["C[C@H]1CCN1c1nc2ncc(C(=O)N[C@H]3C[C@@](C)(O)C3)cc2cc1Cl", "top bin"],
  ["C[C@@H]1CCN1c1cc2ncc(C(=O)N[C@H]3CC[C@H](C(C)(C)O)CC3)cc2cn1", "middle bin"],
  ["CC(C)(O)[C@H]1CC2(C[C@H](NC(=O)c3cnc4nc(C5CC5)ccc4c3)C2)C1 (some centres undefined)", "top bin"],
  ["CC(C)(O)[C@H]1CC[C@H](NC(=O)c2cnc3ccccc3c2)CC1", "bottom bin"],
  ["O=C(N[C@H]1CCNC1=O)c1cnc2nc(C3CC3)c(Cl)cc2c1", "top bin"]
]}

Band assignment needed for `CC(C)(O)[C@H]1C[C@H](NC(=O)c2cnc3nc(C4CC4)ccc3c2)C1` please.
middle bin

Band assignment needed for `C[C@H]1CCN1c1nc2ncc(C(=O)N[C@H]3CC[C@H](C(C)(C)O)CC3)cc2cc1Cl` please.
top bin

###

- assay: Apparent permeability, Papp of the compound at pH 7.4 incubated for 3 hrs by AMP based liquid chromatography
- Format: ADME
- condition summary: not told
value kind: Papp at 3 h

Below, 2 molecules whose answers are already recorded.
{"columns": ["compound structure string", "measured result"],
 "data": [
  ["CC(C)(O)[C@H]1CC[C@H](NC(=O)c2cnc3nc(N4CCC4)ncc3c2)CC1", "< 1 ×10⁻⁶ cm/s"],
  ["C[C@H]1CCN1c1nc2ncc(C(=O)N[C@H]3CCNC3=O)cc2cc1Cl", "< 0.3 ×10⁻⁶ cm/s"]
]}

API: the following record is the query input.
Read off the recorded Papp at 3 h for `O=C(N[C@H]1CCNC1=O)c1cnc2cc(N3CCC3)ncc2c1`
< 1 ×10⁻⁶ cm/s

###

- assay: Dose normalized AUC in mouse at 3 mg/kg, po
- Assay type: ADME, organism-based
- Set-up: unit not given here
- condition summary: in vivo
Catalogue of AUC/dose values
Keep the answer to the number alone.

Read off the recorded AUC/dose for `CC(C)(O)[C@H]1CC[C@H](NC(=O)c2cnc3cc(C4CC4)ncc3c2)CC1`
1040

Read off the recorded AUC/dose for `CC(C)(O)[C@H]1CC[C@H](NC(=O)c2cnc3nc(C4CC4)ncc3c2)CC1`
204

Read off the recorded AUC/dose for `C[C@H]1CCN1c1ccc2cc(C(=O)N[C@H]3CC[C@H](C(C)(C)O)CC3)cnc2n1`
73.7

Read off the recorded AUC/dose for CC(N[C@H]1CC[C@H](NC(=O)c2cnc3nc(C4CC4)ccc3c2)CC1)C(F)F (mixture of isomers)
681

Read off the recorded AUC/dose for CC(C)(O)[C@H]1CC2(C[C@H](NC(=O)c3cnc4nc(C5CC5)ccc4c3)C2)C1 (stereo not given in full)
477

###

- assayed system: Hematopoietic prostaglandin D synthase (Rattus norvegicus, UniProt O35543)
- Sequence (O35543 whole entry): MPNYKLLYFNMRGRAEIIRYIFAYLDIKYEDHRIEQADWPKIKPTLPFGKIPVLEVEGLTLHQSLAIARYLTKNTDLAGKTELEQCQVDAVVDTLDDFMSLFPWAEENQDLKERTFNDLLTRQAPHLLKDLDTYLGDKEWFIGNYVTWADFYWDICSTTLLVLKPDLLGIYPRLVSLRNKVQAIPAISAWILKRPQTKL
- assay: Inhibition of H-PGDS in rat RBL cells assessed as reduction in A23187-induced PGD2 production pretreated for 30 mins followed by A23187 addition for 30 mins by RapidFire Mass spectrometry
- Assay type: cell-based
value kind: log10(EC50) (log10 of the value in nM)
Quick note: numbers are log10 of EC50, with nM as the unit.

Below, 5 compounds whose answers are already recorded.
{"columns": ["compound structure string", "measured result"],
 "data": [
  ["CC(C)c1ccc2cc(C(=O)N[C@H]3CC[C@H](C(C)(C)O)CC3)cnc2n1", 1.81],
  ["C[C@H]1CCN1c1ccc2cc(C(=O)N[C@H]3CC[C@H](C(C)(C)O)CC3)cnc2n1", 1.15],
  ["CC(C)(O)[C@H]1CC[C@H](NC(=O)c2cnc3cc(C4CC4)ncc3c2)CC1", 1.97],
  ["C[C@]1(O)C[C@H](NC(=O)c2cnc3nc(C4CC4)c(Cl)cc3c2)C1", 2.28],
  ["CC(C)(O)[C@H]1CC[C@H](NC(=O)c2cnc3nc(N4CC(F)C4)ccc3c2)CC1", 3.00]
]}

Read off the recorded log10(EC50) for `COc1ccc2nc(C(=O)N[C@H]3CC[C@H](C(C)(C)O)CC3)cnc2c1`
3.51

Read off the recorded log10(EC50) for `O=C(N[C@H]1CCNC1=O)c1cnc2nc(N3CCC3)ccc2c1`
3.78
